- System: PDAC cells (PANC1, MiaPaCa2 and AsPC1)
- protocol: MTT cell viability assay, PDAC cells
- Type: cell-based
- conditionDescription: 4 days
pIC50: −log10 of the molar value.
propertyMeasured: pIC50

Q. For CCOc1nc2cccc(C(=O)OC(C)OC(=O)OC3CCCCC3)c2n1Cc1ccc(-c2ccccc2-c2nn[nH]n2)cc1 (centres unmarked) [Can, Candesartan cilexetil] , what is its reported pIC50?
A. ~4.70

Q. Please look up its pIC50: Cl.Clc1ccc(C(OCCN2CCCCC2)c2ccccc2)cc1 (centres unmarked) [Clo, Cloperastine hydrochloride]
A. ~4.52

* * *

Kindly state pIC50 for each of the entries shown.
Note: pIC50 values are expressed as the negative base-10 logarithm of concentration in M.

Q. Hello, I am looking for reported pIC50 with PRMT5 (Homo sapiens, UniProt O14744) for Cl.Clc1ccc(C(OCCN2CCCCC2)c2ccccc2)cc1 (centres unmarked) [Clo, Cloperastine hydrochloride] . Could you help?
A. 4.57

Q. Requested read-out pIC50, target or system PRMT5 (Homo sapiens, UniProt O14744), entry CCOc1nc2cccc(C(=O)OC(C)OC(=O)OC3CCCCC3)c2n1Cc1ccc(-c2ccccc2-c2nn[nH]n2)cc1 (centres unmarked)
A. 4.48
